The reported measurements were obtained from patent US12522615B2.

Entries annotated with measured pIC50
test system: Ba/F3 cells driven by EGFR L858R; test: Ba/F3 proliferation assay (CellTiter-Glo viability); assay type: cell-based, murine; details: Mus musculus, BaF3, 72 h
pIC50: −log10 of the molar value.
Measured Metric: pIC50

INSERT INTO measurements (chemical_smiles, value_observed) VALUES
  ('COc1cc2ncnc(Nc3ccc(F)c(Cl)c3)c2cc1NC(=O)/C=C/CN1CCCCC1', 10.52),
  ('Cc1cc2cc(n1)-c1cnn(C)c1OCCC[C@@H](C)CN1/C(=N/C2=O)Nc2ccc(CN3CCN(C)CC3)cc21', 8.15),
  ('Cc1cc(C(=O)Nc2nc3cccc(Cl)c3n2[C@@H]2CCCCN(C(=O)/C=C/CN(C)C)C2)ccn1', 8.29);

---

Recorded pIC50 values for a group of compounds are listed next.
target: EGFR (mutated) 695-1022, T790M, C797S, L858R (Homo sapiens (Human), UniProt P00533, C797S/L858R/T790M); test: Biochemical EGFR inhibition assay (poly-GT substrate phosphorylation, TR-FRET LANCE Ultra); conditions: 100 μM ATP; read-out: LR_TM_CS (100 μM ATP)
Sequence (P00533 695-1022 T790M/C797S/L858R): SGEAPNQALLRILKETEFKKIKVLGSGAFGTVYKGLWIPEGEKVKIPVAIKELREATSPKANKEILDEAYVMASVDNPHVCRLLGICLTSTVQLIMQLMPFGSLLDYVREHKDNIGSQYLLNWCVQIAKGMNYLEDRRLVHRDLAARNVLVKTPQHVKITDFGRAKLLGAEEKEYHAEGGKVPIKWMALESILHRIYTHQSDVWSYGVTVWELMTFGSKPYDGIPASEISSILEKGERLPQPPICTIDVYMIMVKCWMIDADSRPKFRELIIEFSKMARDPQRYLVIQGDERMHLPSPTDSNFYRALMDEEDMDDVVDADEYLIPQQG
pIC50: −log10 of the molar value.
Measured Metric: pIC50

INSERT INTO measurements (chemical_smiles, value_observed) VALUES
  ('C[C@@H]1CCCOc2ccccc2-c2cc(ccn2)C(=O)N=C2Nc3ccccc3N2C1', 7.80),
  ('Cc1cc2cc(n1)-c1cnn(C)c1OCCC[C@@H](C)CN1/C(=N/C2=O)Nc2ccccc21', 8.52),
  ('Cc1cc2cc(n1)-c1cnn(C)c1OCCCCCN1/C(=N/C2=O)Nc2ccccc21', 8.22),
  ('Cc1cc2cc(n1)-c1cnn(C)c1OCCC[C@@H](C)CN1/C(=N/C2=O)Nc2ccc(Br)cc21', 7.80),
  ('Cn1ncc2c1OCCCCCN1/C(=N/C(=O)c3cc(F)nc-2c3)Nc2ccccc21', 8.52);

---

target: EGFR del19 T790M C797S (Homo sapiens, UniProt P00533, C797S/T790M, form not given); test: pEGFR assay: phosphorylation of EGFR at Tyr1068 in Ba/F3 cells (AlphaScreen Surefire); conditions: 4 h
Sequence (P00533 25-1210 T790M/C797S limits assumed, form open): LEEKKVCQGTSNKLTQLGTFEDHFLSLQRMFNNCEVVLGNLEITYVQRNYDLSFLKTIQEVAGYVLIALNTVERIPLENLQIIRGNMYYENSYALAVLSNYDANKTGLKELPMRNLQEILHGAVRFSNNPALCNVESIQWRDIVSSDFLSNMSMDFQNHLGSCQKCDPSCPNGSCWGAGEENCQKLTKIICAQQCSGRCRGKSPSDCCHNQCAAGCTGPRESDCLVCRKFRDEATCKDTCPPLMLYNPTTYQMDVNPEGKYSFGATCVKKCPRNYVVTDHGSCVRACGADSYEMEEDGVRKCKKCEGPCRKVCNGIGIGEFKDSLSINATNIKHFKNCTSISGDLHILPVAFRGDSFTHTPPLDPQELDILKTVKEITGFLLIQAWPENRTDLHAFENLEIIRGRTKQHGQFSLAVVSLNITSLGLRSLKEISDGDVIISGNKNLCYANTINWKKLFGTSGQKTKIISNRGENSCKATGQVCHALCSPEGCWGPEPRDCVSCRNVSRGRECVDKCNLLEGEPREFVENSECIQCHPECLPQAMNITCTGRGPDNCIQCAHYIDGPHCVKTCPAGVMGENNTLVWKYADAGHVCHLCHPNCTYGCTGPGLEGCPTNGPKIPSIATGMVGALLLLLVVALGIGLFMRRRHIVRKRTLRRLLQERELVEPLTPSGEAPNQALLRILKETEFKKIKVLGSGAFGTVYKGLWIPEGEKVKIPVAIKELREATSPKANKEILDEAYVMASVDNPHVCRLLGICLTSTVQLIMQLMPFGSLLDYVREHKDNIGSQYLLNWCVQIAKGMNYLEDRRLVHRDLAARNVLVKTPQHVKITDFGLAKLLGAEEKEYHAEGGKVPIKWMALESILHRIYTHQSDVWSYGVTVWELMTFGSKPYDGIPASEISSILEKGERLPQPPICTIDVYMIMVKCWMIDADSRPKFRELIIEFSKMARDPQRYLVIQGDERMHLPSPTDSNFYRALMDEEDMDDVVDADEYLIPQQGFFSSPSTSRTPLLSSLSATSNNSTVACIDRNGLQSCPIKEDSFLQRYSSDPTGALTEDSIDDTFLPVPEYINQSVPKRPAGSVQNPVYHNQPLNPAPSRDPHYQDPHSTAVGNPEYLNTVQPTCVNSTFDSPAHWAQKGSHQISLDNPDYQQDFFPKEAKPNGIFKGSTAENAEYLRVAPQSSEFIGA
Measured Metric: log10 IC50 (log10 of the value in nM)

INSERT INTO measurements (compound, value_observed) VALUES
  ('C[C@@H]1CCCOc2c(cnn2C)-c2cc(cc(Cl)n2)C(=O)/N=C2\Nc3cn(C)nc3N2C1', 0.18),
  ('Cn1ncc2c1OCCCCCN1/C(=N/C(=O)c3cc(F)nc-2c3)Nc2ccccc21', 0.08),
  ('Cc1cc2cc(n1)-c1cnn(C)c1OC[C@@H](C)[C@H](O)CCN1/C(=N/C2=O)Nc2ccccc21', -0.10),
  ('C[C@@H]1CCOc2ccccc2-c2cc(ccn2)C(=O)/N=C2\Nc3ccccc3N2CC1', 1.18),
  ('COc1cccc2c1N1C[C@H](C)CCCOc3c(cnn3C)-c3cc(cc(C)n3)C(=O)/N=C/1N2', 0.28),
  ('Cc1cc2cc(n1)-c1cnn(C)c1OCCC[C@@H](C)CN1/C(=N/C2=O)Nc2ccc(C(=O)N3CCN(C)CC3)cc21', 0.20),
  ('Cc1cc2cc(n1)-c1cnn(C)c1OCCC[C@@H](C)CN1/C(=N/C2=O)Nc2cnn(C)c21', -0.10),
  ('Cc1cc2cc(n1)-c1cnn(C)c1OC[C@@H](C)[C@@H](O)CCN1/C(=N/C2=O)Nc2ccccc21', 0.95),
  ('C[C@@H]1CCCOc2c(cnn2C)-c2cc(ccn2)C(=O)/N=C2\Nc3cnn(C)c3N2C1', -0.15),
  ('Cc1cc2cc(n1)-c1cnn(C)c1OCCCCCN1/C(=N/C2=O)Nc2ccccc21', 0.08),
  ('Cc1cc2cc(n1)-c1cnn(C)c1OCC[C@@H](O)[C@H](C)CN1/C(=N/C2=O)Nc2ccccc21', 0.56),
  ('Cc1cc2cc(n1)-c1cnn(C)c1OCCC[C@@H](O)CN1/C(=N/C2=O)Nc2ccccc21', 0.04),
  ('O=C1/N=C2\Nc3ccccc3N2CCCCCOc2ccccc2-c2cc1ccn2', 0.79),
  ('C[C@@H]1CCCOc2c(cnn2C)-c2cc(ccn2)C(=O)/N=C2\Nc3cn(C)nc3N2C1', 0.53),
  ('Cc1cc2cc(n1)-c1cnn(C)c1OCC[C@H](O)CCN1/C(=N/C2=O)Nc2ccccc21', 0.00),
  ('Cc1cc2cc(n1)-c1cnn(C)c1OCCC[C@@H](C)CN1/C(=N/C2=O)Nc2ccc(OCCN3CCN(C)CC3)cc21', -0.30),
  ('Cc1cc2cc(n1)-c1cnn(C)c1OC[C@@H](C)CCCN1/C(=N/C2=O)Nc2cnn(C)c21', 0.23),
  ('Cc1cc2cc(n1)-c1cnn(C)c1OCCC[C@@H](C)CN1/C(=N/C2=O)Nc2ccc(CN(C)C)cc21', -0.15),
  ('Cc1cc2cc(n1)-c1cnn(C)c1OCCC(O)CCN1/C(=N/C2=O)Nc2cnn(C)c21 (centres unmarked)', 1.45),
  ('Cc1cc2cc(n1)-c1cnn(C)c1OCC[C@@H]1CC[C@@H](C1)N1/C(=N/C2=O)Nc2ccccc21', 1.23),
  ('C[C@@H]1CCCOc2c(cnn2C)-c2cc(cc(Cl)n2)C(=O)/N=C2\Nc3cnn(C)c3N2C1', 0.88),
  ('Cc1cc2cc(n1)-c1cnn(C)c1OCCC[C@@H](C)CN1/C(=N/C2=O)Nc2ccc(C(=O)N(C)C)cc21', 0.11),
  ('Cc1cc2cc(n1)-c1cnn(C)c1OCCC[C@@H](C)CN1/C(=N/C2=O)Nc2ccc(N3CCOCC3)cc21', -0.22),
  ('Cc1cc2cc(n1)-c1cnn(C)c1OCCC[C@@H](C)CN1/C(=N/C2=O)Nc2ccc(Br)cc21', 0.60),
  ('C[C@@H]1CCCOc2c(cnn2C)-c2cc(cc(F)n2)C(=O)/N=C2\Nc3cn(C)nc3N2C1', -0.30),
  ('O=C1/N=C2\Nc3ccccc3N2CCCCCOc2cc(F)ccc2-c2cc1ccn2', 1.38),
  ('COC(=O)c1ccc2c(c1)N1C[C@H](C)CCCOc3c(cnn3C)-c3cc(cc(C)n3)C(=O)/N=C/1N2', 0.36),
  ('Cc1cc2cc(n1)-c1cnn(C)c1OCCCCN1/C(=N/C2=O)Nc2ccccc21', 1.82),
  ('Cc1cc2cc(n1)-c1cnn(C)c1OCC[C@@H](O)CCN1/C(=N/C2=O)Nc2ccccc21', 0.81);

---

target: EGFR del19 T790M C797S (Homo sapiens, UniProt P00533, C797S/T790M, form not given); experiment: pEGFR assay: phosphorylation of EGFR at Tyr1068 in Ba/F3 cells (AlphaScreen Surefire); conditions: 4 h
pIC50: −log10 of the molar value.
Listed below: pIC50 values for each entry.
Measured Metric: pIC50

INSERT INTO assay_data (compound, measured_metric, value_observed) VALUES
  ('C[C@@H]1CCCOc2ccccc2-c2cc(ccn2)C(=O)N=C2Nc3ccccc3N2C1 [Compound I-046]', 'pIC50', 8.39),
  ('CC[C@@H]1CCCOc2c(cnn2C)-c2cc(cc(C)n2)C(=O)/N=C2\Nc3ccc(N4CCN(C)CC4)cc3N2C1 [Compound I-020]', 'pIC50', 9.22),
  ('Cc1cc2cc(n1)-c1cnn(C)c1OC[C@H](O)C[C@@H](C)CN1/C(=N/C2=O)Nc2ccccc21 [Compound I-014]', 'pIC50', 8.38),
  ('Cc1cc2cc(n1)-c1cnn(C)c1OCCCCCCCN1/C(=N/C2=O)Nc2ccccc21 [Compound I-052]', 'pIC50', 7.64);
